Form field: protein stability index (one value per entry).
B1: SOAT1 (parent)
chain: VYYIFERLCAPLFRNIKQEPFSAR

Variants of: B1
TEST SUMMARY: protein stability index of a GFP-peptide fusion (GPS, HEK-293T) (PSI 1-6); higher = more stable;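 note: lentivirally expressed fusions sorted by FACS into six bins by GFP to DsRed ratio, PSI derived from sequencing read proportions per bin multiplied by bin number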
MEASUREMENT CONTEXT: c terminus: a fixed tail appended
A bare number is all that is needed in reply.

sequence_entry="VYYIFERLCAPLFRNIKQEPFSAL [R24L]" measured_result=2.79
sequence_entry="DYYIFERLCAPLFRNIKQEPFSAR [V1D]" measured_result=1.44
sequence_entry="VYYIFERLCAPLFRNIKQEPYSAR [F21Y]" measured_result=2.9
sequence_entry="VYYIFERLCAKLFRNIKQEPFSAR [P11K]" measured_result=3.65
sequence_entry="VYYIFERLCAPLFRNIKFEPFSAR [Q18F]" measured_result=1.28
sequence_entry="VYYIFERRCAPLFRNIKQEPFSAR [L8R]" measured_result=2.86

protein stability index lookup needed for VYYIFERLCAPLFRNIKQEWFSAR [P20W] , thanks.
2.79

protein stability index lookup needed for VYYIFERLCAPLFRNIKQEGFSAR [P20G] , thanks.
2.71

protein stability index lookup needed for VRYIFERLCAPLFRNIKQEPFSAR [Y2R] , thanks.
1.59

protein stability index lookup needed for VYYIFERLCAPLFRNIKQEPFDAR [S22D] , thanks.
2.88
